Every entry's value here was drawn from paper PMC10344917.

target: BRD4-NanoLuc (Homo sapiens, UniProt O60885); construct: expressed in transfected cells; host or cells: HEK293; assay: NanoBRET target engagement assay, live and permeabilized HEK293 cells (BRD4); assay type: cell-based; conditions: RBA test cmpd / RBA of JQ1 benchmark; surrogate for permeability
Measured Availability Index by item
# output: bare number, no unit

Query: Requested field: Availability Index. Item: Cc1ncsc1-c1ccc(CNC(=O)[C@@H]2C[C@@H](O)CN2C(=O)[C@@H](NC(=O)COCCOCc2cn(CCNC(=O)C[C@@H]3N=C(c4ccc(Cl)cc4)c4c(sc(C)c4C)-n4c(C)nnc43)nn2)C(C)(C)C)cc1 [Compound 13]
Reply: 73.87

New cases:
Query: Requested field: Availability Index. Item: Cc1ncsc1-c1ccc(CNC(=O)[C@@H]2C[C@@H](O)CN2C(=O)[C@@H](NC(=O)COCCOCCOCc2cn(CCNC(=O)C[C@@H]3N=C(c4ccc(Cl)cc4)c4c(sc(C)c4C)-n4c(C)nnc43)nn2)C(C)(C)C)cc1 [Compound 14]
Reply: 126.63

Query: Requested field: Availability Index. Item: Cc1ncsc1-c1ccc(CNC(=O)[C@@H]2C[C@@H](O)CN2C(=O)[C@@H](NC(=O)COCCOCCOCCOCCOCc2cn(CCNC(=O)C[C@@H]3N=C(c4ccc(Cl)cc4)c4c(sc(C)c4C)-n4c(C)nnc43)nn2)C(C)(C)C)cc1 [Compound 16]
Reply: 164.81

Query: Requested field: Availability Index. Item: Cc1ncsc1-c1ccc(CNC(=O)[C@@H]2C[C@@H](O)CN2C(=O)[C@@H](NC(=O)COCc2cn(CCNC(=O)C[C@@H]3N=C(c4ccc(Cl)cc4)c4c(sc(C)c4C)-n4c(C)nnc43)nn2)C(C)(C)C)cc1 [Compound 12]
Reply: 264.47

Query: Requested field: Availability Index. Item: Cc1ncsc1-c1ccc(CNC(=O)[C@@H]2C[C@@H](O)CN2C(=O)[C@@H](NC(=O)COCCOCCOCCOCc2cn(CCNC(=O)C[C@@H]3N=C(c4ccc(Cl)cc4)c4c(sc(C)c4C)-n4c(C)nnc43)nn2)C(C)(C)C)cc1 [Compound 15]
Reply: 34.23

###

molecular target: SMARCA2-NanoLuc (Homo sapiens); construct: expressed in transfected cells; host or cells: HEK293; experiment: NanoBRET target engagement assay, live and permeabilized HEK293 cells (SMARCA2); type: cell-based; settings: permeabilized HEK293 cells, SMARCA2 NanoBRET TE; read-out: Permeabilized-Cell TE IC50
Sequence (P51531 whole entry): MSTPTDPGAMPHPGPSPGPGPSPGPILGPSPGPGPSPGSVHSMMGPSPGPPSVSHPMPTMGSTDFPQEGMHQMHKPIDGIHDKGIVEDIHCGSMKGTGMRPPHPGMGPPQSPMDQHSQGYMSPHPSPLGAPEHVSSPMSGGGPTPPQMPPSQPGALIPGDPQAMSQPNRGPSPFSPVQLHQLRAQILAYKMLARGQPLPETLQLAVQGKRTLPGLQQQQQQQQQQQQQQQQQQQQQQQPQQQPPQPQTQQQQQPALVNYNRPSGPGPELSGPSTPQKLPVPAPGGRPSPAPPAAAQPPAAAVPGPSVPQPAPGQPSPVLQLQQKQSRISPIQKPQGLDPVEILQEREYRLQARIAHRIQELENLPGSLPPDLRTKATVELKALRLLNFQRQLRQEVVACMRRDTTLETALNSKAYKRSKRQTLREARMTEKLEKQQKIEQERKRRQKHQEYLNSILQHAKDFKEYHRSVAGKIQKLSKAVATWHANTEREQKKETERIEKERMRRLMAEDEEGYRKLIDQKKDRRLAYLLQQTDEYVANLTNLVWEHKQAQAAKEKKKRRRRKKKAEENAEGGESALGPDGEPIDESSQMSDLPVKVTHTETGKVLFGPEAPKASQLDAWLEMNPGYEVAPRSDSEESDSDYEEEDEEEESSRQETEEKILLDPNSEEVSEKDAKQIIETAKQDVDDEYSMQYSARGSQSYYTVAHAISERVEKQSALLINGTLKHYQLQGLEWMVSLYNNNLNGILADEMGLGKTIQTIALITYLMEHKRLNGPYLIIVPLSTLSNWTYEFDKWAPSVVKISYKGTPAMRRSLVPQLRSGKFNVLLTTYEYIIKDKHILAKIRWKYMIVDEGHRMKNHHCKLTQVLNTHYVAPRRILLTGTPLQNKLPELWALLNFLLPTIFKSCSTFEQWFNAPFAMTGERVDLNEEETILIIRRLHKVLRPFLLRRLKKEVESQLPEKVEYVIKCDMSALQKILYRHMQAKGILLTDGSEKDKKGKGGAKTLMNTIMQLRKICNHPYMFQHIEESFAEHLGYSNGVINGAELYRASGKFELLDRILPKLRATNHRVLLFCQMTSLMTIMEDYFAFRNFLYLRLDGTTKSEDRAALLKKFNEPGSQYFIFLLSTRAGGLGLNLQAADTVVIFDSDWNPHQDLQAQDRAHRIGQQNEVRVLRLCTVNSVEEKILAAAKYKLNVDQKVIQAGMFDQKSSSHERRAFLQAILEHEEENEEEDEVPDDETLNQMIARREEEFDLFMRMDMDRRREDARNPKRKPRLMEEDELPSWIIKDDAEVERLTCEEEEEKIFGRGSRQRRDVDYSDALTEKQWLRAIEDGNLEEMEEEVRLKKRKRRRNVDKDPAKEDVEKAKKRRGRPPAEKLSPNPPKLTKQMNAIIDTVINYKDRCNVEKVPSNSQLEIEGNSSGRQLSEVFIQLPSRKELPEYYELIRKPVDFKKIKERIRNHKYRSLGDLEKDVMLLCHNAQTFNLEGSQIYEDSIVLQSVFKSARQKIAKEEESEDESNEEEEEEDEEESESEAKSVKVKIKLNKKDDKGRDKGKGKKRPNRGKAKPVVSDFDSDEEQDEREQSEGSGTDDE
readout label: pIC50
Formally, pIC50 is defined as -log10 of the concentration c, with c in mol/L.

Worked cases, answers included:
Query: Which pIC50 is reported with SMARCA2-NanoLuc (Homo sapiens) for this entry: Cc1ncsc1-c1ccc([C@H](C)NC(=O)[C@@H]2C[C@@H](O)CN2C(=O)[C@@H](NC(=O)c2ccnc(N3CCN(c4cnnc(-c5ccccc5O)c4)CC3)c2)C(C)(C)C)cc1 [Compound 10] ?
Reply: 5.30

Query: Which pIC50 is reported with SMARCA2-NanoLuc (Homo sapiens) for this entry: Cc1ncsc1-c1ccc([C@H](C)NC(=O)[C@@H]2C[C@@H](O)CN2C(=O)[C@@H](NC(=O)CCc2ccnc(N3CCN(c4cc(-c5ccccc5O)nnc4N)CC3)c2)C(C)(C)C)cc1 [Compound 8] ?
Reply: 7.30

Would you kindly look at the next entry?
Query: Which pIC50 is reported with SMARCA2-NanoLuc (Homo sapiens) for this entry: Cc1ncsc1-c1ccc([C@H](C)NC(=O)[C@@H]2C[C@@H](O)CN2C(=O)[C@@H](NC(=O)c2cccc(N3CCN(c4cc(-c5ccccc5O)nnc4N)CC3)c2)C(C)(C)C)cc1 [Compound 4] ?
Reply: 6.12
